Recorded values, source ChEMBL document CHEMBL1149103.

- Species on record: Mus musculus
- experimental_protocol: Anticonvulsant activity expressed as log(1/EDMES(2.5)) in MES assay on mice that responded a score of 2.5
- Assay type: functional
The threshold is inclusive: Log 1/EDMES(2.5) of exactly -2 counts as criterion met; values below receive criterion not met.

hey, is Log 1/EDMES(2.5) for this one >= -2? `O=C1NC(=O)/C(=C/c2cccc(F)c2)N1`
criterion not met

Is Log 1/EDMES(2.5) for `O=C1NC(=O)/C(=C/c2ccccc2Cl)N1` at or above -2?
criterion not met

Could you verify whether the entry `Cc1ccc(/C=C2\NC(=O)NC2=O)cc1` shows Log 1/EDMES(2.5) of no less than -2?
criterion not met

Form field: Log 1/EDMES(2.5) at least -2? Entry: `O=C1NC(=O)/C(=C/c2cccc(Cl)c2)N1`
criterion met

Entry `COc1ccc(/C=C2\NC(=O)NC2=O)c(OC)c1` : is its Log 1/EDMES(2.5) no less than -2?
criterion not met

Hi team, for `O=C1NC(=O)C(c2ccccc2)(c2ccccc2)N1` , is the recorded Log 1/EDMES(2.5) at or above -2?
criterion met

Dear colleague, could you confirm whether `O=C1NC(=O)/C(=C/C2CCCCC2)N1` has Log 1/EDMES(2.5) at or above -2?
criterion not met

For this compound, is measured Log 1/EDMES(2.5) -2 or higher? `O=C1NC(=O)/C(=C/c2ccc(Cl)cc2Cl)N1`
criterion not met

Confirm if Log 1/EDMES(2.5) reported for the compound `O=C1NC(=O)/C(=C/c2ccccc2Br)N1` is -2 or above.
criterion not met

====

- Species: Mus musculus
- experimental_protocol: Anticonvulsant activity expressed as log(1/EDMES(2.5)) in MES assay on mice that responded a score of 2.5
- Format: functional
endpoint_name: Log 1/EDMES(2.5)
Please respond with just the number, no unit label.

compound | endpoint_result
O=C1NC(=O)/C(=C/c2ccccc2OCc2ccccc2)N1 | -2.3
O=C1NC(=O)/C(=C/c2ccc([N+](=O)[O-])cc2)N1 | -2.3
O=C1NC(=O)/C(=C/c2ccc3ccccc3c2)N1 | -2.3

Then there is this compound:
Answer with the recorded Log 1/EDMES(2.5) of `CCOc1ccc(/C=C2\NC(=O)NC2=O)cc1` only.
-2.03

====

- Organism: Mus musculus
- experimental_protocol: Anticonvulsant activity expressed as log(1/EDMES(2.5)) in MES assay on mice that responded a score of 2.5
- Assay type: functional
Please note: Log 1/EDMES(2.5) exactly at -2 is 0. Only values below -2 get 1.

compound | class_name
O=C1NC(=O)/C(=C\c2c(Cl)cccc2Cl)N1 | 0

Determine if `CC(C)c1ccc(/C=C2\NC(=O)NC2=O)cc1` shows Log 1/EDMES(2.5) strictly lower than -2.
0

Decide: Log 1/EDMES(2.5) of `O=C1NC(=O)/C(=C/c2ccc(Cl)cc2)N1` strictly below -2?
1

Below -2 on Log 1/EDMES(2.5)? Entry O=C1NC(=O)/C(=C/c2ccc(O)cc2)N1 [4-HYDROXYPHENYLMETHYLENE HYDANTOIN]
1

Answer whether the compound `O=C1NC(=O)/C(=C/c2cccc(C(F)(F)F)c2)N1` has Log 1/EDMES(2.5) strictly less than -2
1

Is Log 1/EDMES(2.5) strictly under -2 for the entry `O=C1NC(=O)/C(=C/c2ccccc2C(F)(F)F)N1` ?
1

Regarding `O=C1NC(=O)/C(=C/c2ccc(OCc3ccccc3)cc2)N1` , kindly confirm whether its Log 1/EDMES(2.5) is beneath -2.
1

A record lists `CCCCc1ccc(/C=C2\NC(=O)NC2=O)cc1` . Is its Log 1/EDMES(2.5) below -2?
1

Quick check: Log 1/EDMES(2.5) of `O=C1NC(=O)/C(=C/c2ccccc2F)N1` under -2?
1
